Where do the numbers come from? From PubChem BioAssay AID623868.

# Experimental protocol: thallium influx changes without GIRK channels – cell-based, HEK-293 rmGlu8, no GIRK, thallium flux, counter-screen for GIRK activator project, confirmation (AID 623868);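 note: extra codes mark interference with 3 for fluorescent and 4 for baseline rise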
# Measurement setup: thallium flux fluorescence, at 10 µM, actives lie on both sides, codes: 1 enhancer, -1 blocker, 0 none, thallium stimulus containing EC20 glutamate
Out of some 2,100 compounds screened, about 760 (36%) were called active. These entries were drawn from the full list.
The following compounds are listed with their measured manual score values.
Just the number, please, no unit after it.

1) CCCn1c(=N)n(CC(O)COc2cccc(C)c2)c2ccccc21 (stereo not drawn) | 0
2) COC(=O)c1ccc(NS(=O)(=O)c2ccc(SC)cc2)cc1 | 0
3) O=C1c2cccc3c(O)ccc(c23)C(=O)N1Cc1ccccc1 | 3
4) COc1ccc(S(=O)(=O)NCCC(=O)NC2CCCCCCC2)cc1 | 0
5) CC(=O)Oc1ccc(N(C(C)=O)S(=O)(=O)c2cccs2)c2ccccc12 | 0
6) Cc1ccc(-c2c(C)sc(NC(=O)C3C4CCC(O4)C3C(=O)O)c2C(=O)OC(C)C)cc1 (stereo not drawn) | 0

## Input Supply reported manual score belonging to this compound: `COc1ccc(N(CC(=O)NC2CCCC2)C(=O)Cn2nnc(-c3ccc(C)cc3)n2)cc1`
## Output 0

## Input Supply reported manual score belonging to this compound: `CC(C)(C)OC(=O)COc1cc(O)c2c(=O)cc(-c3ccccc3)oc2c1`
## Output 0

## Input Supply reported manual score belonging to this compound: `Cc1cccc(OCC(=O)NC(=S)Nc2ccccc2N2CCOCC2)c1`
## Output 0

## Input Supply reported manual score belonging to this compound: `Cc1[nH]c2ccccc2c1CN1CCc2ccccc2C1`
## Output 0

## Input Supply reported manual score belonging to this compound: CN=C1SC(C(=O)O)CC(=O)N1C (stereo not drawn)
## Output 0

## Input Supply reported manual score belonging to this compound: `COc1ccc(S(=O)(=O)N(CC(=O)N2CCN(c3ccccc3)CC2)c2ccccc2)cc1`
## Output 0

## Input Supply reported manual score belonging to this compound: `CCN(CC)C(=S)NC(=O)c1ccc(Cl)cc1Cl`
## Output 1

---

# Experimental protocol: thallium influx changes without GIRK channels – cell-based, HEK-293 rmGlu8, no GIRK, thallium flux, counter-screen for GIRK activator project, confirmation (AID 623868);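 note: extra codes mark interference with 3 for fluorescent and 4 for baseline rise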
# Measurement setup: thallium flux fluorescence, at 10 µM, actives lie on both sides, codes: 1 enhancer, -1 blocker, 0 none, thallium stimulus containing EC20 glutamate
Hit rate of the full screen: of about 2,100 compounds, about 760 (36%) were called active.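 How the source made its calls: active means thallium-flux fluorescence traces judged by eye to show enhanced or reduced glutamate response, manual score 1 or -1, so both directions (some results past the limit were not filed as active); inactive means the rest, including fluorescent or raised-baseline compounds.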 A selection follows.
Mark one answer only. Choices: y = active, n = inactive

Previously resolved entries follow.
1. S=C(NN=C(C1CC1)C1CC1)Nc1ccccc1 | n
2. C=C(C)C1CC=C(C)/C(=N/NC(=S)Nc2ccccc2)C1 (stereo unspecified) | n
3. O=C(NNC(=O)c1sccc1-n1cccc1)c1ccc(Cl)cc1 | y
4. CC(=O)c1c(N2CCCC2)[nH]c(-c2ccccc2)nc1=S | y
5. CC(C)C(=O)Nc1cccc(NC(=O)c2cc3ccccc3o2)c1 | n
6. O=C(Nc1ccc(Br)cc1)C1CCC(=O)N1Cc1ccccc1Cl (stereo unspecified) | n
7. O=C(NNC(=O)c1sccc1-n1cccc1)c1cccc(Cl)c1 | y
8. CC(C)CC(=O)Nc1ccccc1-c1nnn(CC(=O)N2CCc3ccccc3C2)n1 | n

## Input What did the test return for `O=C(CN1CCOCC1)Nc1ccc(C2CCCCC2)cc1` ?
## Output n

## Input What did the test return for `COc1cc(C)ccc1OCCOc1cc(C)ccc1Cl` ?
## Output n

## Input What did the test return for `O=C(NC(=S)Nc1ccc2oc(-c3cccnc3)nc2c1)c1cccc(Cl)c1` ?
## Output n

## Input What did the test return for `COc1ccc(/C=N/n2c(-c3cccs3)n[nH]c2=S)cc1` ?
## Output y

## Input What did the test return for `COc1cccc(N(CC(=O)Nc2cccc(C(C)=O)c2)S(C)(=O)=O)c1` ?
## Output n

## Input What did the test return for `CCCCN(CCCC)c1ccc(C(=O)c2ccccc2C(=O)O)c(O)c1` ?
## Output n

## Input What did the test return for N#CC1=C(N)Oc2n[nH]c(-c3cccs3)c2C1c1ccoc1 (stereo unspecified) ?
## Output n

## Input What did the test return for `CCn1c(SCc2ccc(Cl)cc2)nnc1-c1ccccc1` ?
## Output n

---

# Experimental protocol: thallium influx changes without GIRK channels – cell-based, HEK-293 rmGlu8, no GIRK, thallium flux, counter-screen for GIRK activator project, confirmation (AID 623868);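 note: extra codes mark interference with 3 for fluorescent and 4 for baseline rise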
# Measurement setup: thallium flux fluorescence, at 10 µM, actives lie on both sides, codes: 1 enhancer, -1 blocker, 0 none, thallium stimulus containing EC20 glutamate
About 760 (36%) of roughly 2,100 compounds were called active.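 The calls were made as follows: active = thallium-flux fluorescence traces judged by eye to show enhanced or reduced glutamate response, manual score 1 or -1, so both directions (some results past the limit were not filed as active); inactive = the rest, including fluorescent or raised-baseline compounds.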 The list is a sample of the results.
Mark one answer only. Choices: 1 (yes) for active, 0 (no) for inactive

Previously resolved entries follow.
1. O=C(CCS(=O)NCc1ccccc1)NCc1ccccc1 (stereo unspecified) | 0 (no)
2. CC(NC(=O)COc1ccccc1)C(=O)NC1=NCCS1 (stereo unspecified) | 0 (no)
3. CC1(C)CC(c2nc(-c3ccc(Br)cc3)cs2)CCS1 (stereo unspecified) | 0 (no)
4. CCc1c(C)sc(NC(=O)CCc2ccc(OC)cc2)c1C(N)=O | 0 (no)
5. O=C(NC(=S)N1CCN(c2ccc(Cl)cc2[N+](=O)[O-])CC1)c1cccs1 | 1 (yes)

## Input What did the test return for `FC(F)(F)c1cccc(N2CCN(C(=S)NC3CCCCC3)CC2)c1` ?
## Output 0 (no)

## Input What did the test return for `COc1cc(NC(=O)CS(=O)(=O)c2ccc(C)cc2)cc(OC)c1OC` ?
## Output 0 (no)

## Input What did the test return for `CC(C)(C)C1CCC2(CC1)Nc1cccc3cccc(c13)N2` ?
## Output 0 (no)

---

# Experimental protocol: thallium influx changes without GIRK channels – cell-based, HEK-293 rmGlu8, no GIRK, thallium flux, counter-screen for GIRK activator project, confirmation (AID 623868);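 note: extra codes mark interference with 3 for fluorescent and 4 for baseline rise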
# Measurement setup: thallium flux fluorescence, at 10 µM, actives lie on both sides, codes: 1 enhancer, -1 blocker, 0 none, thallium stimulus containing EC20 glutamate
Screen size: about 2,100 compounds; about 760 (36%) were called active. Only a sample is shown.
Property: manual score
Just the number, please, no unit after it.

Example results:
1) Cc1ccc(C)c(NC(=S)NNC(=O)c2csc3c2CCC(C)C3)c1 (stereo unspecified) | 1
2) O=C(c1cccc(F)c1)N1CCN(C(=O)c2cc(-c3ccc(Cl)cc3Cl)on2)CC1 | 0
3) Cc1onc(-c2ccccc2)c1C(=O)NC(=S)Nc1sc2c(c1C#N)CCCC2 | 1
4) Cc1ccc(C)c(NC(=S)NNC(=O)c2csc3c2CCCC3)c1 | 1
5) COc1ccc(NC(=O)Nc2ccccc2C(=O)N2CCCC2)cc1 | 0
6) C=CCn1c(SCC(=O)Nc2sccc2C(N)=O)nc2ccc(Cl)cc2c1=O | 1

## Input Supply reported manual score belonging to this molecule: `Cc1ccccc1N=Nc1ccc(O)c2ncccc12`
## Output 1

## Input Supply reported manual score belonging to this molecule: `CCOc1cc(/C=N/NC(=O)CNc2cccc(C)c2)ccc1OC(=O)c1ccccc1`
## Output 0

## Input Supply reported manual score belonging to this molecule: `Cc1ccccc1C(=O)NC(=S)Nc1sc2c(c1C#N)CCCC2`
## Output 0

## Input Supply reported manual score belonging to this molecule: `Cc1cccc(C(=O)NC(=S)NNC(=O)c2cccs2)c1`
## Output 1

## Input Supply reported manual score belonging to this molecule: O=C1Nc2cc(S(=O)(=O)N3CCCC3)ccc2N2CCCC12 (stereo unspecified)
## Output 0

---

# Experimental protocol: thallium influx changes without GIRK channels – cell-based, HEK-293 rmGlu8, no GIRK, thallium flux, counter-screen for GIRK activator project, confirmation (AID 623868);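 note: extra codes mark interference with 3 for fluorescent and 4 for baseline rise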
# Measurement setup: thallium flux fluorescence, at 10 µM, actives lie on both sides, codes: 1 enhancer, -1 blocker, 0 none, thallium stimulus containing EC20 glutamate
About 760 (36%) of roughly 2,100 compounds were called active.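 Rule for the calls: active = thallium-flux fluorescence traces judged by eye to show enhanced or reduced glutamate response, manual score 1 or -1, so both directions (some results past the limit were not filed as active); inactive = the rest, including fluorescent or raised-baseline compounds.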 The list is a sample of the results.
Mark one answer only. Choices: class 1 (active), class 0 (inactive)

1. CCc1ccc(/C=C/C(=O)C2C(=O)c3ccccc3C2=O)cc1 | class 1
2. COc1ccccc1N1CCN(C(=O)CCn2c(=O)[nH]c3ccsc3c2=O)CC1 | class 0
3. CCOc1ccccc1NC(=O)CSc1nnc(-c2ccco2)n1Cc1ccco1 | class 1
4. CC(/C=C\c1cccnc1)=C/C(=O)O | class 0
5. CCc1ccc(/C=c2\s/c(=C\C(=O)C(C)(C)C)[nH]c2=O)cc1 | class 0

## Input What did the test return for `Clc1cccc(CSc2nnc(-c3ccccn3)n2Cc2ccco2)c1` ?
## Output class 0

---

# Experimental protocol: thallium influx changes without GIRK channels – cell-based, HEK-293 rmGlu8, no GIRK, thallium flux, counter-screen for GIRK activator project, confirmation (AID 623868);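 note: extra codes mark interference with 3 for fluorescent and 4 for baseline rise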
# Measurement setup: thallium flux fluorescence, at 10 µM, actives lie on both sides, codes: 1 enhancer, -1 blocker, 0 none, thallium stimulus containing EC20 glutamate
Among all 2,100 compounds or so, about 760 (36%) were called active. These entries were drawn from the full list.
Property: manual score
Just the number, please, no unit after it.

## Input Supply reported manual score belonging to this molecule: CC1(C)CC2CC(C)(CN2c2ncnc3ccccc23)C1 (stereo not given)
## Output 0

## Input Supply reported manual score belonging to this molecule: `O=C(NC(=S)N1CCN(c2ccc([N+](=O)[O-])cc2)CC1)c1ccc(F)cc1`
## Output 1

## Input Supply reported manual score belonging to this molecule: `O=C(NC(=S)N1CCN(c2ccc(F)cc2)CC1)C12CC3CC(CC(C3)C1)C2`
## Output 1

## Input Supply reported manual score belonging to this molecule: `CCOC(=O)C1CCN(C(=O)NC23CC4CC(CC(C4)C2)C3)CC1`
## Output 0

## Input Supply reported manual score belonging to this molecule: `CCC(=O)c1ccc(N2CCN(C(=O)c3cc([N+](=O)[O-])ccc3N3CCN(C)CC3)CC2)c(F)c1`
## Output 0

## Input Supply reported manual score belonging to this molecule: `CC12CC3CC(C)(C1)CC(C(=O)NC(=S)N1CCCCC1)(C3)C2`
## Output 1
